The values you see were collected from ChEMBL document CHEMBL3871267.

Consider the following molecules; for each one, report its IC50.
- target: Neuraminidase (Influenza A virus (strain A/Wilson-Smith/1933 H1N1) (Influenza A virus(strain A/WS/1933 H1N1)), UniProt P03470)
- Sequence (P03470 whole entry): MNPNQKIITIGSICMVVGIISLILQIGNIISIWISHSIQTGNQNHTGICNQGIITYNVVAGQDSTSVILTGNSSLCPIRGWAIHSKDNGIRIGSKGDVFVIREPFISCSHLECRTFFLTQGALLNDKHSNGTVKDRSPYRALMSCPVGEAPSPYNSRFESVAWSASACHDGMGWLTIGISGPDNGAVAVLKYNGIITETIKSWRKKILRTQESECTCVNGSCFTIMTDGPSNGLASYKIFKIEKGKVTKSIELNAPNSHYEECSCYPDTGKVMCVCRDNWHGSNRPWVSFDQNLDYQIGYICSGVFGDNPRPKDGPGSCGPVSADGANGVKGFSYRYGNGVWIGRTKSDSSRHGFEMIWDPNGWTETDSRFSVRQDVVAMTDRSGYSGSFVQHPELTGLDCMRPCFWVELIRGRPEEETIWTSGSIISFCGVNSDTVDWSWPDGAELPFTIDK
- test_protocol: Inhibition of MDCK infected Influenza A virus A/WSN/33(H1N1) neuraminidase using MU-NANA as substrate preincubated for 30 mins followed by substrate addition measured after 1 hr by spectrofluorometric method
- Format: cell-based, Influenza A virus (A/WSN/1933(H1N1))
One number for each entry, in nM.

- smiles_entry: "CC(=O)N[C@H]1[C@H]([C@H](O)[C@H](O)CO)OC(C(=O)O)=C[C@@H]1NC(=N)NC(=O)Cn1cc(-c2ccccc2N)nn1"
  reported_value: 12
- smiles_entry: "CC(=O)N[C@H]1[C@H]([C@H](O)[C@H](O)CO)OC(C(=O)O)=C[C@@H]1NC(=N)NC(=O)Cn1cc(-c2ccc(C)cc2)nn1"
  reported_value: 14

Need IC50 for each of these molecules.
1. COc1ccc2cc(-c3cn(CC(=O)NC(=N)N[C@H]4C=C(C(=O)O)O[C@@H]([C@H](O)[C@H](O)CO)[C@@H]4NC(C)=O)nn3)ccc2c1
2. COc1ccc(-c2cn(CC(=O)NC(=N)N[C@H]3C=C(C(=O)O)O[C@@H]([C@H](O)[C@H](O)CO)[C@@H]3NC(C)=O)nn2)cc1
3. CC(=O)N[C@H]1[C@H]([C@H](O)[C@H](O)CO)OC(C(=O)O)=C[C@@H]1NC(=N)NC(=O)Cn1cc(-c2ccc(F)cc2)nn1
4. CC(=O)N[C@H]1[C@H]([C@H](O)[C@H](O)CO)OC(C(=O)O)=C[C@@H]1NC(=N)NC(=O)Cn1cc(C2=CCCCC2)nn1
5. CC(=O)N[C@H]1[C@H]([C@H](O)[C@H](O)CO)OC(C(=O)O)=C[C@@H]1NC(=N)NC(=O)Cn1cc(-c2ccc(N)cc2)nn1
6. CC(=O)N[C@H]1[C@H]([C@H](O)[C@H](O)CO)OC(C(=O)O)=C[C@@H]1NC(=N)NC(=O)Cn1cc(-c2cccc(Cl)c2)nn1
7. CC(=O)N[C@H]1[C@H]([C@H](O)[C@H](O)CO)OC(C(=O)O)=C[C@@H]1NC(=N)NC(=O)Cn1cc(-c2cccc(F)c2)nn1

1. 31
2. 12
3. 29
4. 15
5. 12
6. 9
7. 14
